The measured values listed here are drawn from patent US20250034269A1.

TESTED SYSTEM: human LTBR on cells (human, UniProt P36941 31-435)
METHOD DESCRIPTION: cell-based or functional assay
RECORDED METRIC: NFκB luc, 3750 ng/ml, with x linker (RLU)
Answers are plain numbers, in RLU.

P1AF0079 (antibody, human IgG1, kappa, L234A L235A, V domains shown, human IgG1 PG LALA; from transgenic rabbit immunization; also called LTBR (0079)) VH: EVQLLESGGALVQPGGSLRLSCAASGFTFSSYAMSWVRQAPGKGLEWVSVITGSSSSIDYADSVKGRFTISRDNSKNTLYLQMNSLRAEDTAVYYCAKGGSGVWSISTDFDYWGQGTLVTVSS VL: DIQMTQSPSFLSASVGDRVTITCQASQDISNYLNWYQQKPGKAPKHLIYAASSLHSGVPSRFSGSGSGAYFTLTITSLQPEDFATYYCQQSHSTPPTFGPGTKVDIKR    23100

Now let's try a different one.
Prompt: Indicate the recorded NFκB luc, 3750 ng/ml, with x linker value for this binder: P1AE9457 (antibody, human IgG1, kappa, L234A L235A, V domains shown, human IgG1 PG LALA; from transgenic rabbit immunization; also called LTBR (9457)) VH: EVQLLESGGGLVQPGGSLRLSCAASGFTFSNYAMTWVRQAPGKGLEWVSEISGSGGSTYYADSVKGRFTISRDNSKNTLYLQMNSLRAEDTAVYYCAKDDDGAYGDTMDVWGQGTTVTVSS VL: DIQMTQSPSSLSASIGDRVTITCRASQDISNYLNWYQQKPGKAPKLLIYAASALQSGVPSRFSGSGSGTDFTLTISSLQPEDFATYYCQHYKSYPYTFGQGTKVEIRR
Completion: 23000
